What IC50 was measured for each of the following?
systemUnderTest: glycine transporter-1 (GlyT-1) (Homo sapiens)
Construct: JAR cells (ATCC#HTB-144), which endogenously express GlyT-1; host or cells: JAR human choriocarcinoma cells
experimentalProtocol: [14C]glycine uptake assay in JAR cells endogenously expressing GlyT-1 (scintillation proximity)
Type: cell-based
details: JAR cells, [14C]glycine 5 μM, 3 hour incubation; read-out: GlyT-1 IC50
Structures can show the parent of a compound that is named as a salt.
Supply the numeric figure in nM, leaving out any unit text.

Ask | State, in one line, measured IC50 of CCCS(=O)(=O)N1CCN(C2(CNC(=O)c3c(F)cc(F)cc3F)CCC(F)(F)CC2)CC1 [compound 144, Hydrochloride]
Reply | 46

Ask | State, in one line, measured IC50 of O=C(NCC1(N2CCN(S(=O)(=O)N3CCCC3)CC2)CCC(F)(F)CC1)c1ccc(C(F)(F)F)cc1Cl [compound 270, Hydrochloride]
Reply | 47

Ask | State, in one line, measured IC50 of Cn1cc(S(=O)(=O)N2CCN(C3(CNC(=O)c4ccc(C(F)(F)F)cc4C(F)(F)F)CCCC3)CC2)nn1 [compound 275, Hydrochloride]
Reply | 7

Ask | State, in one line, measured IC50 of Cn1cnc(S(=O)(=O)N2CCN(C3(CNC(=O)c4ccc(Cl)cc4F)CCC(F)(F)CC3)CC2)c1 [compound 165, Hydrochloride]
Reply | 29

Ask | State, in one line, measured IC50 of Cn1cc(S(=O)(=O)N2CCN(C3(CNC(=O)c4ccc(Cl)cc4Cl)CCCC3)CC2)nn1 [compound 110, Hydrochloride]
Reply | 27

Ask | State, in one line, measured IC50 of CCS(=O)(=O)N1CCN(C2(CNC(=O)c3cc(F)c(Cl)cc3Cl)CCC(F)(F)CC2)CC1 [compound 212, Hydrochloride]
Reply | 209

* * *

What IC50 was measured for each of the following?
systemUnderTest: glycine transporter-1 (GlyT-1) (Homo sapiens)
Construct: JAR cells (ATCC#HTB-144), which endogenously express GlyT-1; host or cells: JAR human choriocarcinoma cells
experimentalProtocol: [14C]glycine uptake assay in JAR cells endogenously expressing GlyT-1 (scintillation proximity)
Format: cell-based
details: JAR cells, [14C]glycine 5 μM, 3 hour incubation; read-out: GlyT-1 IC50
Counter-ions that a name gives are not always drawn.
Supply the numeric figure in nM, leaving out any unit text.

Ask | State, in one line, measured IC50 of CCCS(=O)(=O)N1CCN(C2(CNC(=O)c3ccc(OC)cc3)CCCCCC2)CC1 [compound 67, Hydrochloride]
Reply | 863

Ask | State, in one line, measured IC50 of CCCS(=O)(=O)N1CCN(C2(CNC(=O)c3c(Cl)cccc3Cl)CCOCC2)CC1 [compound 119, Hydrochloride]
Reply | 276

Ask | State, in one line, measured IC50 of CS(=O)(=O)N1CCN(C2(CNC(=O)c3c(N)cccc3Cl)CCCCC2)CC1 [compound 90, Hydrochloride]
Reply | 339

Ask | State, in one line, measured IC50 of CCCS(=O)(=O)N1CCN(C2(CNC(=O)c3ccccc3F)CCCCCC2)CC1 [compound 63, Hydrochloride]
Reply | 99

Ask | State, in one line, measured IC50 of COc1cccc(F)c1C(=O)NCC1(N2CCN(S(=O)(=O)CC3CC3)CC2)CCCCC1 [compound 83, Hydrochloride]
Reply | 57

Ask | State, in one line, measured IC50 of CCCS(=O)(=O)N1CCN(C2(CNC(=O)c3ccc(Cl)cc3C3CC3)CCC(F)(F)CC2)CC1 [compound 253, Hydrochloride]
Reply | 21

Ask | State, in one line, measured IC50 of CCCS(=O)(=O)N1CCN(C2(CNC(=O)c3c(C)cccc3OC)CCCCC2)CC1 [compound 3, Hydrochloride]
Reply | 541

* * *

What IC50 was measured for each of the following?
systemUnderTest: glycine transporter-1 (GlyT-1) (Homo sapiens)
Construct: JAR cells (ATCC#HTB-144), which endogenously express GlyT-1; host or cells: JAR human choriocarcinoma cells
experimentalProtocol: [14C]glycine uptake assay in JAR cells endogenously expressing GlyT-1 (scintillation proximity)
Assay type: cell-based
details: JAR cells, [14C]glycine 5 μM, 3 hour incubation; read-out: GlyT-1 IC50
Where a name gives a salt, the structure may show the parent alone.
Supply the numeric figure in µM, leaving out any unit text.

Ask | State, in one line, measured IC50 of CCCS(=O)(=O)N1CCN(C2(CNC(=O)c3c(C)cc(F)cc3OC)CCOCC2)CC1 [compound 121, Hydrochloride]
Reply | 0.191

Ask | State, in one line, measured IC50 of CCCS(=O)(=O)N1CCN(C2(CNC(=O)c3ccc(C#N)cc3)CCCCC2)CC1 [compound 17, Hydrochloride]
Reply | 0.647

Ask | State, in one line, measured IC50 of CCCS(=O)(=O)N1CCN(C2(CNC(=O)c3c(Cl)cccc3Cl)CCCCCC2)CC1 [compound 64, Hydrochloride]
Reply | 0.011

Ask | State, in one line, measured IC50 of CCCS(=O)(=O)N1CCN(C2(CNC(=O)c3c(Cl)cccc3OC)CCC(F)(F)CC2)CC1 [compound 152, Hydrochloride]
Reply | 0.034

* * *

What pIC50 was measured for each of the following?
systemUnderTest: glycine transporter-1 (GlyT-1) (Homo sapiens, UniProt P48067)
Construct: JAR cells (ATCC#HTB-144), which endogenously express GlyT-1; host or cells: JAR human choriocarcinoma cells
Sequence (P48067 1-706): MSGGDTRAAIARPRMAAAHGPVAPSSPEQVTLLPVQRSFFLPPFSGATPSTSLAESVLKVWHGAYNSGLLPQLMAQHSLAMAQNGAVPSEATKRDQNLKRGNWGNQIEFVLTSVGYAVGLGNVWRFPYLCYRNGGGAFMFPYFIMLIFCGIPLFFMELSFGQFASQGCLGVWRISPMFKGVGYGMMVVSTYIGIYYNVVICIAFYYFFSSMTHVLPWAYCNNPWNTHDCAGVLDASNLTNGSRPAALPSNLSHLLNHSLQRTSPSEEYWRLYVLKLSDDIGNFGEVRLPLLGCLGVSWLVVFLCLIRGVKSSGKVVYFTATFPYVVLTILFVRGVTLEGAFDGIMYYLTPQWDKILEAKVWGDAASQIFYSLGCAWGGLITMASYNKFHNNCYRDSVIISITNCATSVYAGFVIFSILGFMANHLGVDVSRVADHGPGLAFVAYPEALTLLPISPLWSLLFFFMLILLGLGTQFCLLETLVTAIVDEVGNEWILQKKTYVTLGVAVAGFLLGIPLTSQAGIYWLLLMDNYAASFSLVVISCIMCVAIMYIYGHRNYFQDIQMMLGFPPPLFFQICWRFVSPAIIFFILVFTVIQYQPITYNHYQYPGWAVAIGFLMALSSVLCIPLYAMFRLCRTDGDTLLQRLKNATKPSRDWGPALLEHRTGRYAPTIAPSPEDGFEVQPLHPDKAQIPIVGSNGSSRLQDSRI
experimentalProtocol: [14C]glycine uptake assay in JAR cells endogenously expressing GlyT-1 (scintillation proximity)
Format: cell-based
details: JAR cells, [14C]glycine 5 μM, 3 hour incubation; read-out: GlyT-1 IC50
Structures can show the parent of a compound that is named as a salt.
Scale explanation: pIC50 corresponds to minus log10 of a concentration expressed in moles per litre.

Ask | State, in one line, measured pIC50 of CCCS(=O)(=O)N1CCN(C2(CNC(=O)c3c(F)cccc3F)CCCCC2)CC1 [compound 16, Hydrochloride]
Reply | 7.64

Ask | State, in one line, measured pIC50 of CCCS(=O)(=O)N1CCN(C2(CNC(=O)c3ccc(C(F)(F)F)cc3)CCCCC2)CC1 [compound 7, Hydrochloride]
Reply | 6.90

Ask | State, in one line, measured pIC50 of CCCS(=O)(=O)N1CCN(C2(CNC(=O)c3ccc(C(F)(F)F)cc3Cl)CCC(F)(F)CC2)CC1C (stereo not shown) [compound 256, Hydrochloride]
Reply | 6.88

Ask | State, in one line, measured pIC50 of Cn1cnc(S(=O)(=O)N2CCN(C3(CNC(=O)c4ccc(F)cc4F)CCC(F)(F)CC3)CC2)c1 [compound 162, Hydrochloride]
Reply | 7.34

* * *

systemUnderTest: glycine transporter-2 (GlyT-2) (Homo sapiens, UniProt Q9Y345)
Sequence (Q9Y345 whole entry): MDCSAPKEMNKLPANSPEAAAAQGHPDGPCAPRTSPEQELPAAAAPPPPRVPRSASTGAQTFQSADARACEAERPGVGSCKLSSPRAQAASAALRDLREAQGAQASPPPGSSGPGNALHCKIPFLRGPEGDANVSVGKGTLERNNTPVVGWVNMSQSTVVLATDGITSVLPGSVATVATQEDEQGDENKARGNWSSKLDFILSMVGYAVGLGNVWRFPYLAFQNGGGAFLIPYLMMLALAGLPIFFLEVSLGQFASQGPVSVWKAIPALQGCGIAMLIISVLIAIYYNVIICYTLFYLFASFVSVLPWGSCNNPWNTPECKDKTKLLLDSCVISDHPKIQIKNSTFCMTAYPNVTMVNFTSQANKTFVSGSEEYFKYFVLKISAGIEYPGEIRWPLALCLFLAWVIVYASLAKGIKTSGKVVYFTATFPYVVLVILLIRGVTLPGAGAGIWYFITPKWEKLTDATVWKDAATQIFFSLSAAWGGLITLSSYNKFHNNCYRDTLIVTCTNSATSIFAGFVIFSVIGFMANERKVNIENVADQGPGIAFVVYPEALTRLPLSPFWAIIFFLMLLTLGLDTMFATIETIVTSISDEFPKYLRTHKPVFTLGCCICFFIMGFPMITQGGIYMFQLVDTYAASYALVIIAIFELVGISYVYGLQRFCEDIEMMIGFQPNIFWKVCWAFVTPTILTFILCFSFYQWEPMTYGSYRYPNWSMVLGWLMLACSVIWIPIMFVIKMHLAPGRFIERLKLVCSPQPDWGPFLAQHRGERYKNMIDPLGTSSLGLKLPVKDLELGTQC
experimentalProtocol: [14C]glycine uptake assay in HEK-GlyT-2 transfected cells
details: HEK-GlyT-2 cells
pIC50: −log10 of the molar value. Where a name gives a salt, the structure may show the parent alone.
quantityKind: pIC50

Ask | State, in one line, measured pIC50 of Cn1cnc(S(=O)(=O)N2CCN(C3(CNC(=O)c4ccc(F)cc4F)CCCCC3)CC2)c1 [compound 100, Hydrochloride]
Reply | < 4.12

Ask | State, in one line, measured pIC50 of CCCS(=O)(=O)N1CCN(C2(CNC(=O)c3ccc(F)cc3F)CCCCC2)CC1 [compound 39, Hydrochloride]
Reply | ≤ 4.12

Ask | State, in one line, measured pIC50 of O=C(NCC1(N2CCN(S(=O)(=O)C3CCC3)CC2)CCCCC1)c1ccc(Cl)cc1Cl [compound 93, Hydrochloride]
Reply | < 4.12

Ask | State, in one line, measured pIC50 of CCCS(=O)(=O)N1CCN(C2(CNC(=O)c3c(Cl)cc(Cl)cc3Cl)CCC(F)(F)CC2)CC1 [compound 260, Hydrochloride]
Reply | < 4.12

Ask | State, in one line, measured pIC50 of CCCS(=O)(=O)N1CCN(C2(CNC(=O)c3ccccc3F)CCCCCC2)CC1 [compound 63, Hydrochloride]
Reply | < 4.12

Ask | State, in one line, measured pIC50 of CCCS(=O)(=O)N1CCN(C2(CNC(=O)c3ccc(Cl)cc3Cl)CCCCCC2)CC1 [compound 60, Hydrochloride]
Reply | < 4.12

Ask | State, in one line, measured pIC50 of CCCS(=O)(=O)N1CCN(C2(CNC(=O)c3ccc(Br)cc3)CCCCC2)CC1 [compound 11, Hydrochloride]
Reply | < 4.12

Ask | State, in one line, measured pIC50 of CCCS(=O)(=O)N1CCN(C2(CNC(=O)c3c(F)cccc3F)CCC(F)(F)CC2)CC1 [compound 130, Hydrochloride]
Reply | < 4.12

Ask | State, in one line, measured pIC50 of CCCS(=O)(=O)N1CCN(C2(CNC(=O)c3ccc(OC(F)(F)F)cc3)CCCCCC2)CC1 [compound 62, Hydrochloride]
Reply | 5.44

Ask | State, in one line, measured pIC50 of CCCS(=O)(=O)N1CCN(C2(CNC(=O)c3ccc(Cl)cc3Cl)CCC(F)(F)CC2)CC1 [compound 136, Hydrochloride]
Reply | < 4.12

Ask | State, in one line, measured pIC50 of CCCS(=O)(=O)N1CCN(C2(CNC(=O)c3ccc(OCc4ccccc4)cc3)CCCCC2)CC1 [compound 27, Hydrochloride]
Reply | 6.20

Ask | State, in one line, measured pIC50 of CC(C)CS(=O)(=O)N1CCN(C2(CNC(=O)c3c(N)cccc3Cl)CCCCC2)CC1 [compound 92, Hydrochloride]
Reply | 4.26

Ask | State, in one line, measured pIC50 of CCCS(=O)(=O)N1CCN(C2(CNC(=O)c3ccc(F)cc3)CCCCC2)CC1 [compound 15, Hydrochloride]
Reply | < 4.12

Ask | State, in one line, measured pIC50 of COc1cccc(F)c1C(=O)NCC1(N2CCN(S(=O)(=O)c3cn(C)cn3)CC2)CCCCC1 [compound 96, Hydrochloride]
Reply | < 4.12

Ask | State, in one line, measured pIC50 of CCCS(=O)(=O)N1CCN(C2(CNC(=O)c3ccc(C#N)cc3)CCCCC2)CC1 [compound 17, Hydrochloride]
Reply | < 4.12

Ask | State, in one line, measured pIC50 of Cn1cc(S(=O)(=O)N2CCN(C3(CNC(=O)c4ccc(F)cc4F)CCCC3)CC2)nn1 [compound 111, Hydrochloride]
Reply | < 4.12

Ask | State, in one line, measured pIC50 of CCCS(=O)(=O)N1CCN(C2(CNC(=O)c3ccc(OC)cc3)CCCCC2)CC1 [compound 23, Hydrochloride]
Reply | 4.21

Ask | State, in one line, measured pIC50 of CCCS(=O)(=O)N1CCN(C2(CNC(=O)c3ccc(F)cc3C(F)(F)F)CCCCCC2)CC1 [compound 71, Hydrochloride]
Reply | < 4.12

Ask | State, in one line, measured pIC50 of CCCS(=O)(=O)N1CCN(C2(CNC(=O)c3c(C(F)(F)F)ccc(Cl)c3F)CCCCC2)CC1 [compound 5, Hydrochloride]
Reply | ≤ 4.12

Ask | State, in one line, measured pIC50 of CCCS(=O)(=O)N1CCN(C2(CNC(=O)c3ccc(F)cc3OC)CCCCCC2)CC1 [compound 52, Hydrochloride]
Reply | < 4.12

Ask | State, in one line, measured pIC50 of Cc1cc(F)ccc1C(=O)NCC1(N2CCN(S(=O)(=O)c3cn(C)cn3)CC2)CCCCC1 [compound 102, Hydrochloride]
Reply | < 4.12
